- Tgt: UniProt P22413
- Sequence (P22413 1-925): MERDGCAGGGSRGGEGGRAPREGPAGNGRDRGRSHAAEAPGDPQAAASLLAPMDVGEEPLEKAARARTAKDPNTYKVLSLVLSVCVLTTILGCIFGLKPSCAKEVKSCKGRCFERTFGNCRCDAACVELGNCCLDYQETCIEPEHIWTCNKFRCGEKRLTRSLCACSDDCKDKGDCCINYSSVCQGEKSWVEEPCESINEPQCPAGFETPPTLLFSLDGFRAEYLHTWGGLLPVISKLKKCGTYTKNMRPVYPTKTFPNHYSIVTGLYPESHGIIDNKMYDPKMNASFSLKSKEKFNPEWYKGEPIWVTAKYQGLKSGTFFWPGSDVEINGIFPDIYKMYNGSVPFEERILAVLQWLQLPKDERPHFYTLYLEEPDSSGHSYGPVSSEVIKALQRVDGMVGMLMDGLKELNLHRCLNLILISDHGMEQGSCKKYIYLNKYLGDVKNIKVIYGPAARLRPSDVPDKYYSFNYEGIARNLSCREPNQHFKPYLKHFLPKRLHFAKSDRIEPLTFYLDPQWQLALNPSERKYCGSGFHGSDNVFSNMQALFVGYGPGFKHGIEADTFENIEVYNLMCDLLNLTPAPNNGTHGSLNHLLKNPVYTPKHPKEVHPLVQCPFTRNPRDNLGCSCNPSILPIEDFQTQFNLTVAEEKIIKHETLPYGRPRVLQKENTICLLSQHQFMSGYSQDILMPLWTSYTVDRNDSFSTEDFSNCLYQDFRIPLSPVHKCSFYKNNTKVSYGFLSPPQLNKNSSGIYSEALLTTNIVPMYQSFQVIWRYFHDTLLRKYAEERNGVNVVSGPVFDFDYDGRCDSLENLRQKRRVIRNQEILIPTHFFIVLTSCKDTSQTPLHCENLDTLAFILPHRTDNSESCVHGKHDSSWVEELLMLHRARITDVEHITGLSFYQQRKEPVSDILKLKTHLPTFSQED
Property: pIC50
FYI, pIC50 means -log10 of a concentration in mol per litre.

*Q* Any idea what pIC50 came out for "O=C(Nc1ccc(OS(=O)(=O)c2ccc(F)cc2)cc1)c1ccccc1" on UniProt P22413?
*A* 5.24

*Q* Any idea what pIC50 came out for "CCCc1ccc(S(=O)(=O)Oc2ccc(NC(=O)c3ccccc3)cc2)cc1" on UniProt P22413?
*A* 5.77

*Q* Any idea what pIC50 came out for "Cc1ccc(C(=O)Nc2ccc(OS(=O)(=O)c3ccc(OC(F)(F)F)cc3)cc2)cc1" on UniProt P22413?
*A* 6.35

The measured values listed here are drawn from paper PMC9352230.
